# assayedTarget: C-Raf FL (Homo sapiens (Human), UniProt P04049, Y340E/Y341E)
# Sequence (P04049 whole entry Y340E/Y341E): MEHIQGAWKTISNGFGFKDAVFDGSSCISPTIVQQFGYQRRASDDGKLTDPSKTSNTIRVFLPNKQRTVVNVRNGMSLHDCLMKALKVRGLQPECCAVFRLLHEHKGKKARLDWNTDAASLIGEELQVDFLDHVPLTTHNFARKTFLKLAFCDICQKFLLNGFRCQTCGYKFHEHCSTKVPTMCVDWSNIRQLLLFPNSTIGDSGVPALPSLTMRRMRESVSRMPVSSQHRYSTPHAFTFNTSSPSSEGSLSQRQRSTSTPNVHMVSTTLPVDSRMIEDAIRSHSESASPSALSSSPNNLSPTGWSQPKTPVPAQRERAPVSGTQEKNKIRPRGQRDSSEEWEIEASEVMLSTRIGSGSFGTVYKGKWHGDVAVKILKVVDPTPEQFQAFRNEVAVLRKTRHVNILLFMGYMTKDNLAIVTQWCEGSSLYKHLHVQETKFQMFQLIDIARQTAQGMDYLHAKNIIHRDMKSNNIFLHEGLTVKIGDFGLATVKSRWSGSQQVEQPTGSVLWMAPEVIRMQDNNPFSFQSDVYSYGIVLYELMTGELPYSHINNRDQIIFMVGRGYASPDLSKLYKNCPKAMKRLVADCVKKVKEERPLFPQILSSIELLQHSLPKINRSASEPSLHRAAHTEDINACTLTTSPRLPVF
# Sequence (P63104 whole entry partner): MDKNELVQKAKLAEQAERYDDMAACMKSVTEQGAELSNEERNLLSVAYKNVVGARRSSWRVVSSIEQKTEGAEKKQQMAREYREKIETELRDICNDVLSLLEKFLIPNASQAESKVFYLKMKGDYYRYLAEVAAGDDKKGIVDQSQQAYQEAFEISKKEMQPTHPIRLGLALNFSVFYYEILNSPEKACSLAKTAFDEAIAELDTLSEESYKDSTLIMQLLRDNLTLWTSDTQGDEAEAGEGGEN
# procedureText: In vitro Raf activity determination (Alpha Screen, phospho-MEK), C-Raf FL (full length, Y340E/Y341E)
# protocolConditions: ATP 1 μM; 60 min pre-incubation; 1 hour reaction; column head does not say FL or TR
Reported values of IC50 for individual entries
Please state the figure in nM; there is no need to write the unit.

// worked examples, IC50 included
[
  {
    "molecule": "COc1ncc(-c2cc(NC(=O)c3ccnc(C(C)(C)F)c3)cnc2C)cc1C1(O)COC1 [Example 76]",
    "IC50 (nM)": 3.93
  },
  {
    "molecule": "Cc1ncc(NC(=O)c2ccnc(C(C)(C)F)c2)cc1-c1cc(C2(F)COC2)cc(OCCO)n1 [Example 48]",
    "IC50 (nM)": 7.53
  },
  {
    "molecule": "Cc1ccc(NC(=O)c2ccnc(C(F)(F)F)c2)cc1-c1cc2c(c(C3CCOCC3)c1)OC(C)(C)C(=O)N2 [Example 196]",
    "IC50 (nM)": 0.4
  },
  {
    "molecule": "Cc1ccc(NC(=O)c2ccnc(C(C)(C)C#N)c2)cc1-c1cc(OCCO)nc(C2(CF)CCOCC2)c1 [Example 213]",
    "IC50 (nM)": 0.2
  },
  {
    "molecule": "COc1ncc(-c2cc(NC(=O)c3cc(C(C)(C)N)cc(C(F)(F)F)c3)cnc2C)cc1C1(F)COC1 [Example 102]",
    "IC50 (nM)": 2.68
  },
  {
    "molecule": "COc1ncc(-c2cc(NC(=O)c3ccnc(C(C)(C)F)c3)ccc2C)cc1C1(CF)COC1 [Example 104]",
    "IC50 (nM)": 0.128
  }
]

Okay, next one:
Prompt line: Entry Cc1ccc(NC(=O)c2cccc(C(F)(F)F)c2)cc1-c1cc(C2CCOCC2)nc(N2CCC(O)CC2)c1 [Example 186] has what IC50?
Response line: 0.83
